Listed compounds paired with reported Ratio
# Test system: MDCK
# test description: Efflux ratio of permeability from basolateral to apical over apical to basolateral side in MDCK cells transfected with MDR1
# Format: ADME, cell-based, Canis lupus familiaris
# condition details: dog

# compound, Ratio
rows = [
    ("CCOC(=O)Nc1ccc(NCc2ccc(F)cc2)cc1N [EZOGABINE]", 1.13),
    ("COc1nc(N2CCC(OC)CC2)nc(OC)c1NC(=O)CC(C)(C)C", 1.25),
    ("COc1nc(N2CCC(F)(F)CC2)nc(OC)c1NC(=O)CC(C)(C)C", 1.29),
    ("COc1nc(N2CCCOCC2)nc(OC)c1NC(=O)CC(C)(C)C", 1.25),
    ("COc1nc(N2CC(F)(F)C2)nc(OC)c1NC(=O)CC(C)(C)C", 1.29),
    ("COCCN(C)c1nc(OC)c(NC(=O)CC(C)(C)C)c(OC)n1", 1.11),
    ("COc1nc(N2CCC(OC)CC2)nc(OC)c1NC(=O)CCC1CCCC1", 1.21),
    ("COc1nc(N2CCCCC2)nc(OC)c1NC(=O)CC(C)(C)C", 1.59),
    ("COc1nc(N2CCOCC2)nc(OC)c1NC(=O)CC(C)(C)C", 1.11),
]
